Documented protease stability score across a set of sequences
# ASSAY OVERVIEW: protease stability score; higher = more stable; yeast display proteolysis, trypsin and chymotrypsin;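 note: log10 excess protease needed over predicted unfolded state with 0 meaning unfolded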
Form field (numeric): enter value without unit.

> print(dat)
                              sequence.data           reported.metric  obs.value
1  DEDENNKILESINTNDSKHNKDLLDKDVTIRYGDKQVQGREEALEFLDTWNKRVDHFRVHHMTVKGDKLRMRFEIVFNGVTVEVSLSAKVENGRMKHFHLDARDEKVRHRLKRMFG  protease stability score      0.108
2  EDHTLREFQKNWQHNNPDELEKMMDPNVKIVIGDKKYHGKEEAKRINKQIVDQADHIDIRRVEVSGNKLEIRMVLNVNGNTRELVVIFKLHNGRIKHVEFKFTDERQKNFQEEMLQ  protease stability score       1.08
3  DEDKEDRVRTWVEAQKTGDPDKAKENADPNVRVEYGDKTIHGMSEIVKHIKREKHESRRTIDSYSVSASGDHITVRIDMHVKHDGQPRRKDYTETIVIRNGKIRHIKRRDDK  protease stability score       0.36
4  DETLFELIQRLIEAYKHGNPDELKKQADPNARVKVGDKELHGMEEIAKELVTQRKQQRLSYLSINNDDDPNHARVRFNVEVERNGQPRTKRFELRAETHNGRLISMEVQSRR  protease stability score      0.232
5  DEEKLAENFLETMQNIAREGDEEKMADLFDPNAEIQVGDKSYQGREDVLELNRREFERYDHVRIDVKRFSVKNGQLDAEMSVTFSVNGKTDSHDQRLRATLHNGRLKAKHRTNG  protease stability score      0.476

Kindly consider the entry below.
DDRELEDVQRVVETGDPDKLNDLADKDARMQVGDHKVRGSDQVRSLMDKLKKRIDHYDVKSITIRNGRLDATVVFVINGEEIEVRIVLRVHNGRLKEMSIHATSERVQTILKKAMS yielded protease stability score of 0.803

meta.source: the NTF2 design screens of Basanta et al. (2020)
